The reported measurements were obtained from PubChem BioAssay (Tox21).

- assay-protocol: qHTS assay to identify small molecule agonists of the retinoic acid receptor (RAR) signaling pathway (AID 1159553)
- recorded-conditions: C3RL4 RARE luciferase reporter, agonist, 6 h; series mostly up to 73.3 µM
- Source text: National Center for Advancing Translational Sciences [NCATS] NIH Chemical Genomics Center [NCGC] U.S. Environmental Protection Agency [EPA] National Institutes of Environmental Health Sciences [NIEHS] National Toxicology Program [NTP] […]
Results filed as inconclusive are left out. Activity calls are given as the source filed them. Calls follow the shape of the dose curve; as a rule, active = well fitted activation curve with a large enough effect in the repeat runs; inconclusive = weak or mixed curves, or effect the other way; inactive = no such curve, though single readings can be large or run the other way.
Outcomes you can answer with include only these: class 1 = active, class 0 = inactive

Before answering, review these 3 worked examples.
{"molecule": "Cc1ccc(N(CCO)CCO)cc1", "assigned-category": "class 0"}
{"molecule": "C=CC(=O)O", "assigned-category": "class 0"}
{"molecule": "CCN(CC)C(=O)N1CCN(C)CC1", "assigned-category": "class 0"}

# fetch the recorded call for `Nc1nc2ccc(OC(F)(F)F)cc2s1` here
class 1

# fetch the recorded call for `C=CCOC(=O)COCCC(C)C` here
class 0

# fetch the recorded call for `CCN(CC)CCOc1ccccc1C(=O)CCc1ccccc1` here
class 0

# fetch the recorded call for `CC(C)C(=O)OCCOc1ccccc1` here
class 0

# fetch the recorded call for CC1CCc2nccnc21 (configuration not stated) here
class 0

# fetch the recorded call for `COc1cc(NCc2ccc3nc(N)nc(N)c3c2C)cc(OC)c1OC` here
class 0

# fetch the recorded call for COc1ccc2nc(S(=O)Cc3ncc(C)c(OC)c3C)[nH]c2c1 (configuration not stated) here
class 1

# fetch the recorded call for COC1CCC=CO1 (configuration not stated) here
class 0

# fetch the recorded call for `C=C(C)c1ccccc1` here
class 0

# fetch the recorded call for `COc1ccc(C)cc1` here
class 0

# fetch the recorded call for `CC(C)c1ccc(C(=O)N=C(N)N)cc1S(C)(=O)=O` here
class 0

# fetch the recorded call for CC(C)C1CCC(C(=O)N[C@H](Cc2ccccc2)C(=O)O)CC1 (some centres not stated) here
class 0

---

- assay-protocol: A CellTox Green Cytotoxicity Assay to monitor cytotoxicity in HepG2 cells - 40 hour (AID 1224879); also: nearly all actives have a fitted effect of over 40% in size
- recorded-conditions: CellTox Green fluorescence; series mostly up to 76.8 µM
Inconclusive results are not listed. The source made the active and inactive calls. Calls follow the shape of the dose curve; as a rule, active = well fitted activation curve with a large enough effect in the repeat runs; inconclusive = weak or mixed curves; inactive = flat fitted curve, though single readings scatter.
Outcomes you can answer with include only these: active, inactive

Before answering, review these 4 worked examples.
{"mol": "CCN(CC)C(=O)/C(C#N)=C/c1cc(O)c(O)c([N+](=O)[O-])c1", "assigned-category": "inactive"}
{"mol": "O=C(Nc1ccc(C(=O)O)c(O)c1)c1ccccc1", "assigned-category": "inactive"}
{"mol": "O=C1OC[C@H](Cc2cccc(O)c2)[C@H]1Cc1cccc(O)c1", "assigned-category": "inactive"}
{"mol": "O[C@@H](CNC[C@H](O)[C@H]1CCc2cc(F)ccc2O1)[C@@H]1CCc2cc(F)ccc2O1", "assigned-category": "active"}

# fetch the recorded call for `CCCCC[C@H](O)/C=C/[C@H]1[C@H](O)CC(=O)[C@@H]1C/C=C\CCCC(=O)O` here
inactive

# fetch the recorded call for `FC(F)(F)C(F)(F)C(F)(F)C(F)(F)CCI` here
inactive

# fetch the recorded call for `CCOC(=O)N1CCC(Nc2ccc(Cl)cc2N)CC1` here
inactive

# fetch the recorded call for `CC(=O)NNC(C)=O` here
inactive

# fetch the recorded call for `CCOC(=O)Oc1ccc(CCNC(=O)[C@H](CCSC)NC(C)=O)cc1OC(=O)OCC` here
inactive

# fetch the recorded call for `CCNc1nc(N)nc(Cl)n1` here
inactive
